System: house fly (Musca domestica)
ASSAY REMARKS: Local application to house fly, LD50 by Probit method (Test Example 4)
Type: in vivo
ASSAY CONDITIONS: topical, 24 h
// LD50 lookup, one value per entry

CCOC(=O)CCN(SN(C)C(=O)Oc1cccc2c1OC(C)(C)C2)C(C)C [Example 23]
44.3 mg/kg

Request: In one line, give reported LD50 of the entry CCOC(=O)CN(SN(C)C(=O)Oc1cccc2c1OC(C)(C)C2)C1CCCCC1 [Example 18] .
Result: 32.5 mg/kg

Request: In one line, give reported LD50 of the entry CC(C)OC(=O)CN(CC(=O)OC(C)C)SN(C)C(=O)Oc1cccc2c1OC(C)(C)C2 [Example 4] .
Result: 28.9 mg/kg

Request: In one line, give reported LD50 of the entry CCOC(=O)CCN(CC(=O)OCC)SN(C)C(=O)Oc1cccc2c1OC(C)(C)C2 [Example 9] .
Result: 31.7 mg/kg
